- study target: EGFR(L858R/T790M) (Homo sapiens, UniProt P00533, L858R/T790M)
- Construct: purchased from Carna (GST-a.a. 669-1210)
- Sequence (P00533 669-1210 T790M/L858R): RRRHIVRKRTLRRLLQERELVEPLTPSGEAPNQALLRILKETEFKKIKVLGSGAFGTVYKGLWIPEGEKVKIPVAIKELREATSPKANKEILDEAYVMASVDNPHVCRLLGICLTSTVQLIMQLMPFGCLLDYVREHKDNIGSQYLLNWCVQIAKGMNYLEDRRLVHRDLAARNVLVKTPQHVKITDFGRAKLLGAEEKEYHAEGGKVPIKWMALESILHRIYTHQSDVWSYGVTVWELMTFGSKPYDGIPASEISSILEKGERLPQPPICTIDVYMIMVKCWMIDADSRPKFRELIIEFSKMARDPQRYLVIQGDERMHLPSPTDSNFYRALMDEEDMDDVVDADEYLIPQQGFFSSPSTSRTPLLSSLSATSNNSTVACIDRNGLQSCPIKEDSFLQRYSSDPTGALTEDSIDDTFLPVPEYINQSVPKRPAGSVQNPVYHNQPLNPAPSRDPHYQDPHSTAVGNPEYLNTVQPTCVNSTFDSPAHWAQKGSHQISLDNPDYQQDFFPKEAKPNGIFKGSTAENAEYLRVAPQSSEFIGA
- test: EGFR biochemical assay (HTRF), IC50 determinations
- study conditions: EGFR (L858R/T790M) with 90 min pre-incubation; read-out: IC50 (μM) Column B
observation type: IC50 (µM)

CN(C)C/C=C/C(=O)N1CCCCC(n2c(NC(=O)c3ccnc(P(C)(C)=O)c3)nc3cccc(Cl)c32)C1 (single isomer, unassigned) [Example 21-10A]; 0.572
C=CC(=O)N1CCCCC(n2c(NC(=O)c3ccccc3)nc3cccc(C(=O)N4C[C@@H](O)[C@H](O)C4)c32)C1 (some centres unmarked) [Example 17-140]; 0.043
C=CC(=O)N1CCC[C@@H](n2c(NC(=O)c3cccc(C(F)(F)F)c3)nc3cc(CN4C[C@@H](O)[C@H](O)C4)ccc32)C1 [Example 17-120]; 0.028

[P] C/C=C/C(=O)N1CCCCC(n2c(NC(=O)c3cccc(C(F)(F)F)c3)nc3cccc(C)c32)C1 (centres unmarked) [Example 17-20]
[Q] C=CC(=O)N1CCCC(n2c(NC(=O)c3cccc(C(F)(F)F)c3)nc3c2CCN(C(C)=O)C3)C1 (centres unmarked) [Example 17-169]
[R] Cc1cccc2nc(NC(=O)c3ccncn3)n(C3CCCCN(C(=O)/C=C/CN(C)C)C3)c12 (centres unmarked) [Example 17-37]
[S] Cc1cccc2nc(NC(=O)c3cnco3)n(C3CCCCN(C(=O)/C=C/CN(C)C)C3)c12 (centres unmarked) [Example 17-5]
[T] CN(C)C/C=C/C(=O)N1CCCCC(n2c(NC(=O)c3ccnc(P(C)(C)=O)c3)nc3cccc(Cl)c32)C1 (single isomer, unassigned) [Example 21-10B]
Input: Highest IC50 first, then in falling order down to the smallest. # output: labels, in the requested order
Output: Q, P, T, R, S
(Q: 0.186 µM, P: 0.032 µM, T: 0.014 µM, R: 0.005 µM, S: 0.001 µM)

----------
- study target: HCC827 (Del E746-A750) (Homo sapiens, UniProt P00533, DEL746-750)
- Sequence (P00533 with tags, fused parts or gaps DEL746-750): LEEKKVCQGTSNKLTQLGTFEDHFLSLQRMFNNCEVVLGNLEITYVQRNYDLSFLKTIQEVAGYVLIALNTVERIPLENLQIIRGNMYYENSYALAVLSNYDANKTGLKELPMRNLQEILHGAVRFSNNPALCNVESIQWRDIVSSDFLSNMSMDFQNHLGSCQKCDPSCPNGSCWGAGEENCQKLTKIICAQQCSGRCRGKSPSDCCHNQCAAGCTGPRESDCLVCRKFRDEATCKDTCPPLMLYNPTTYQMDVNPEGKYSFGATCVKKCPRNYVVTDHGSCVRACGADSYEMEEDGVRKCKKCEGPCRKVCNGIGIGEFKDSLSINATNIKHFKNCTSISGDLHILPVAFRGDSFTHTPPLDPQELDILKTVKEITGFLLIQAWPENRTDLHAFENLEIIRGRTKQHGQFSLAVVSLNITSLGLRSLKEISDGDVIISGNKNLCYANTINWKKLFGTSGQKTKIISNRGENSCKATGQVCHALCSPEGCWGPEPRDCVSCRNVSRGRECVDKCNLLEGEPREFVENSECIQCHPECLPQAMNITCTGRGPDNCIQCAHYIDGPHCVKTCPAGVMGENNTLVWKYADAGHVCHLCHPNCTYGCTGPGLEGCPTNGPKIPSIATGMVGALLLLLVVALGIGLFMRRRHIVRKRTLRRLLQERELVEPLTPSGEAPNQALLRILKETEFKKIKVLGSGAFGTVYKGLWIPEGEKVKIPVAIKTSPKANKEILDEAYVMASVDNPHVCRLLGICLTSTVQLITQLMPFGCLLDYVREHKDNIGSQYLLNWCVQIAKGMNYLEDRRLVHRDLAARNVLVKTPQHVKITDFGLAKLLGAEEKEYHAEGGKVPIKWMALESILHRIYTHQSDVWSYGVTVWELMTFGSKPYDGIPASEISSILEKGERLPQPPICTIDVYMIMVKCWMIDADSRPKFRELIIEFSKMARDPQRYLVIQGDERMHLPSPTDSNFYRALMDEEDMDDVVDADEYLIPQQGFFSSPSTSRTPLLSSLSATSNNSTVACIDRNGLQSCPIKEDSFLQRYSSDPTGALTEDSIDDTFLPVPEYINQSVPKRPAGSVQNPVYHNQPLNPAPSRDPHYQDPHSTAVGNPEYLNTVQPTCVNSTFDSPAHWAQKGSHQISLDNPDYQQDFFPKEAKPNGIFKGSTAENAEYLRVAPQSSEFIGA
- test: EGFR target modulation in HCC827 cell line (phospho-EGFR Y1173 ELISA)
pIC50: −log10 of the molar value.
observation type: pIC50

C/C=C/C(=O)N1CCCC[C@@H](n2c(NC(=O)c3cc(C)nc(C)c3)nc3ccc(OCCN4CCCC4)c(Cl)c32)C1; 7.35
C/C=C/C(=O)N1CCCC[C@@H](n2c(NC(=O)c3ccnc(C)c3)nc3cc(CN4CC[C@@H](OC)C4)cc(C)c32)C1; 7.96
C=CC(=O)N1CCCC[C@@H](n2c(NC(=O)c3cc(C)nc(C)c3)nc3cc(CN4CC[C@@H](OC)C4)cc(C)c32)C1; 8.70
C=CC(=O)N1CCCC[C@@H](n2c(NC(=O)c3cc(C)nc(C)c3)nc3ccc(OCCN4CCCC4)c(Cl)c32)C1; 9.00
Cc1cc(C(=O)Nc2nc3cccc(Cl)c3n2[C@@H]2CCCCN(C(=O)/C=C/CN3CCCC3)C2)ccn1; 8.70

[A] COc1cccc2nc(NC(=O)c3ccnc(C)c3)n([C@@H]3CCCCN(C(=O)/C=C/CN(C)C)C3)c12
[B] Cc1cc(C(=O)Nc2nc3cccc(Cl)c3n2[C@@H]2CCCCN(C(=O)/C=C/CN3CC[C@@H](O)C3)C2)ccn1
Input: Min pIC50? A | B Please identify the chosen entry by its label.
Output: B

[a] C/C=C/C(=O)N1CCCC[C@@H](n2c(NC(=O)c3cc(C)nc(C)c3)nc3cc(CN4CC[C@H](F)C4)cc(C)c32)C1
[b] CNC/C=C/C(=O)N1CCCC[C@@H](n2c(NC(=O)c3cc(C)nc(C)c3)nc3cccc(Cl)c32)C1
Input: Param metric = pIC50; output whichever of a , b has the minimum value. When you have decided, please share the label of that item.
Output: a
